The reported measurements were obtained from paper PMC9482650.

- Study system: T1, NHERF3_3, Q5T2W1
- T1 sequence (Q5T2W1 238-333, limits assumed, looked up): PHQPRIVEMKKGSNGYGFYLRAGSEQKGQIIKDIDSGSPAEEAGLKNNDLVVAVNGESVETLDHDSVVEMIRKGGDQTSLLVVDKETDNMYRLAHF
- Test summary: holdup assay
- Set-up: key: below the threshold = too weak to quantify, mostly under pKd 3.1 to 4
- Applied conditions: plain residues with an end cap or a label only (N-terminal biotin on a linker: ado-ado)
Observable: pKd

Example binders with recorded pKd:
Lookup result for CLREWCDAFL [BANF1, O75531] ; measured pKd: below the threshold

Lookup result for SARSRLSSNL [HCN2, Q9UL51] ; measured pKd: below the threshold

Lookup result for LKVPPEERLI [CRB2, Q5IJ48] ; measured pKd: below the threshold

Lookup result for DTTVPESEDL [MYOZ2, Q9NPC6] ; measured pKd: below the threshold

Lookup result for NLSIEKETKL [ASNSD1, Q9NWL6] ; measured pKd: 4.67

// next entry
Lookup result for SAKVRTVTSV [RASL11B, Q9BPW5] ; measured pKd: below the threshold
